Entry source: patent US11096985B2

- Test system: clinical strains of Escherichia coli
- run.description: MIC, clinical strains of E. coli
- Assay type: cell-based
- Set-up: unit: μg/ml
- run.parameters: Escherichia coli clinical strain 3; microdilution, Muller Hinton broth-cation adjusted, 0.02% BSA, 0.2% acetic acid
Where a SMILES comes first, the peptide text is derived from it. [ ]: non-standard residue; d: D form.
// values below are reported Minimum inhibitory concentration
No unit in the answer, only the number.

The cases that follow already have their Minimum inhibitory concentration on record.
| molecule | Minimum inhibitory concentration |
| --- | --- |
| CC(C)C[C@@H](NC(=O)[C@H](N)CCCNC(=N)N)C(=O)N[C@H](CCCCN)C(=O)N[C@H](Cc1c[nH]c2ccccc12)C(=O)N[C@H](Cc1ccccc1)C(=O)N[C@H](CC(C)C)C(=O)N[C@H](CC(C)C)C(=O)N[C@H](Cc1ccccc1)C(=O)N[C@H](CCCNC(=N)N)C(=O)N[C@H](CCCCN)C(=O)N[C@H](CCCNC(=N)N)C(=O)O [Chain308D] (H-[dR][dL][dK][dW][dF][dL][dL][dF][dR][dK][dR]-OH) | 1 |
| CC[C@@H](C)[C@@H](NC(=O)[C@@H](Cc1c[nH]c2ccccc12)NC(=O)[C@H](N)CCCCN)C(=O)N[C@@H](C(=O)N[C@H](Cc1c[nH]c2ccccc12)C(=O)N[C@H](CCCNC(=N)N)C(=O)N[C@H](Cc1c[nH]c2ccccc12)C(=O)N[C@H](CCCNC(=N)N)C(=O)N[C@H](Cc1ccccc1)C(=O)N[C@H](CCCCN)C(=O)N[C@H](CCCNC(=N)N)C(=O)O)C(C)C [Chain201D] (H-[dK][dW][dI][dV][dW][dR][dW][dR][dF][dK][dR]-OH) | 1 |
| CC[C@@H](C)[C@@H](N)C(=O)N[C@H](Cc1c[nH]c2ccccc12)C(=O)N[C@H](CCCCN)C(=O)N[C@H](CCCNC(=N)N)C(=O)N[C@H](Cc1ccccc1)C(=O)N[C@H](CCCNC(=N)N)C(=O)N[C@H](CC(C)C)C(=O)N[C@H](Cc1ccccc1)C(=O)N[C@H](CCCCN)C(=O)N[C@H](CCCCN)C(=O)N[C@H](Cc1c[nH]c2ccccc12)C(=O)O [Chain304D] (H-[dI][dW][dK][dR][dF][dR][dL][dF][dK][dK][dW]-OH) | 16 |

Field: next molecule
// map CC(C)C[C@@H](NC(=O)[C@@H](CCCCN)NC(=O)[C@@H](CCCCN)NC(=O)[C@@H](Cc1ccccc1)NC(=O)[C@@H](CC(C)C)NC(=O)[C@@H](Cc1c[nH]c2ccccc12)NC(=O)[C@@H](CCCNC(=N)N)NC(=O)[C@@H](Cc1c[nH]c2ccccc12)NC(=O)[C@@H](CCCCN)NC(=O)[C@@H](CCCNC(=N)N)NC(=O)[C@H](N)CCCCN)C(=O)O [Chain310D] (H-[dK][dR][dK][dW][dR][dW][dL][dF][dK][dK][dL]-OH) to recorded Minimum inhibitory concentration (system: clinical strains of Escherichia coli)
16
